assay: yeast display, Sf9 membrane polyspecificity reagent, FACS + sequencing; frameworks hold sequencing errors

CONSTRUCT SEQUENCE	polyreactivity (PSR sort gate)
QVQLVESGGGLVQAGGSLRLSCAASGSTFISNAMGWYRQAPGKERELVASITWTDVSTYYADSVKGRFTISRDNAKNTVYLQMNSLKPEDTAVYYCAAVTGLSSNDGYDYWGQGTQVTVSS	low polyreactivity
QVQLVESVGGLVQAGGSHRLSCAASGSIFGYYTMGWYRQAPGKERELVAAITYSGGSTYYADSVKGRFTISRDNAKNTVYLQMNSLKPEDTAVYYCNAKSAAHRYVRRHDYWGLGTQVTVSS	low polyreactivity
QVQLVESGGGLVQAVGSLRLSCAASGSTTFYAMGSYRQAPRKEWELVATISSSAGSTYYADSVKGRFTISRDNAKNTVFFQMNSLKPEDTAVFYCNAADAVSDYPDFHIYDYWGQGTQVTVSS	low polyreactivity
